Molecular target: T1, cell-bound CD73 (human, UniProt P21589 27-549)
T1 sequence (looked up): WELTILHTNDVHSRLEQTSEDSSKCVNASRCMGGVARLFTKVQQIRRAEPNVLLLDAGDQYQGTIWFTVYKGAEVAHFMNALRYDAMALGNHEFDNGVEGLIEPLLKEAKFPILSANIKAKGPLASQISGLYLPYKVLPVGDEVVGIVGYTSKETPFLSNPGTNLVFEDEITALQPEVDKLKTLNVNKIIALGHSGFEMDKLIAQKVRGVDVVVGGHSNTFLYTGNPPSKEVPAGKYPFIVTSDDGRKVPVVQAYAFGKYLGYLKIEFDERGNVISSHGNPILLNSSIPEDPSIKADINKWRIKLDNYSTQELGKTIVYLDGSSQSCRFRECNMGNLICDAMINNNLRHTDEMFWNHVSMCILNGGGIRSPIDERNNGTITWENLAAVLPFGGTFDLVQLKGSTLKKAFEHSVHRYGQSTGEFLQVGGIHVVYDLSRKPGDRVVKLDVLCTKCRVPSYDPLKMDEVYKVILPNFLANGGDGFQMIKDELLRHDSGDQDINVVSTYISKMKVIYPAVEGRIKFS
Experiment: cell-based or functional assay
Readout Label: CD8 T cell proliferation [% of control], Donor F, 1 nM antibody (%)
Express the result in % but write the number alone.

Answered cases to consult:
B2 (antibody, human IgG1, kappa, L234A L235A, V domains shown, Humanized monoclonal antibody; also called anti-CD73 antibody B2) VH: EVQLVESGGGLVQPGGSLRLSCAASGLTFSSYVMSWVRQAPGKGLEWVSTISSGGVSTYYPDTVKGRFTISRDNSKNTLYLQMNSLRAEDTAVYYCAKRETARATGFAYWGQGTLVTVSA VL: DIQMTQSPSSLSASVGDRVTITCKASQSVSDDVTWYQQKPGKAPKLLIYYASNRYTGVPSRFSGSGSGTDFTFTISSVQPEDIATYYCQQDYSSPWTFGGGTKLEIKR | -8.9
C3 (antibody, human IgG1, kappa, L234A L235A, V domains shown, Humanized monoclonal antibody; also called anti-CD73 antibody C3) VH: QVQLVQSGAEVKKPGDSVKVSCKASGYTFTTYWMHWVRQAPGQGLEWMGAIYPGLSDTTYSQKFKGKVTMTRDTSTSTVYMKLSSLRSEDTAVYYCARLLDYAMDYWGQGTLVTVSS VL: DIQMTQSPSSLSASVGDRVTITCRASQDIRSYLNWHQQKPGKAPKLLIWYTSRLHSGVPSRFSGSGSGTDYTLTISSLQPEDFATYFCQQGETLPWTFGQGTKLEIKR | 91.3

Switching to the query record.
Q: Name the recorded CD8 T cell proliferation [% of control], Donor F, 1 nM antibody for C6 (antibody, human IgG1, kappa, L234A L235A, V domains shown, Humanized monoclonal antibody; also called anti-CD73 antibody C6) VH: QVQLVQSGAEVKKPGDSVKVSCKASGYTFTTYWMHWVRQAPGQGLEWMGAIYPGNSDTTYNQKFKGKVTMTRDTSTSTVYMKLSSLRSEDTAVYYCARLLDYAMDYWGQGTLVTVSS VL: DIQMTQSPSSLSASVGDRVTITCRASQDIRNYLNWHQQKPGKAPKLLIWYTSRLHSGVPSRFSGSGSGTDYTLTISSLQPEDFATYFCQQGNTLPWTFGQGTKLEIKR .
Result: 91.1
